# TARGET_OF_ASSAY: human ACC2 (Homo sapiens, UniProt O00763)
# Construct: made in house; host or cells: insect cells (baculoviral expression system)
# Sequence (O00763 129-2458 limits assumed): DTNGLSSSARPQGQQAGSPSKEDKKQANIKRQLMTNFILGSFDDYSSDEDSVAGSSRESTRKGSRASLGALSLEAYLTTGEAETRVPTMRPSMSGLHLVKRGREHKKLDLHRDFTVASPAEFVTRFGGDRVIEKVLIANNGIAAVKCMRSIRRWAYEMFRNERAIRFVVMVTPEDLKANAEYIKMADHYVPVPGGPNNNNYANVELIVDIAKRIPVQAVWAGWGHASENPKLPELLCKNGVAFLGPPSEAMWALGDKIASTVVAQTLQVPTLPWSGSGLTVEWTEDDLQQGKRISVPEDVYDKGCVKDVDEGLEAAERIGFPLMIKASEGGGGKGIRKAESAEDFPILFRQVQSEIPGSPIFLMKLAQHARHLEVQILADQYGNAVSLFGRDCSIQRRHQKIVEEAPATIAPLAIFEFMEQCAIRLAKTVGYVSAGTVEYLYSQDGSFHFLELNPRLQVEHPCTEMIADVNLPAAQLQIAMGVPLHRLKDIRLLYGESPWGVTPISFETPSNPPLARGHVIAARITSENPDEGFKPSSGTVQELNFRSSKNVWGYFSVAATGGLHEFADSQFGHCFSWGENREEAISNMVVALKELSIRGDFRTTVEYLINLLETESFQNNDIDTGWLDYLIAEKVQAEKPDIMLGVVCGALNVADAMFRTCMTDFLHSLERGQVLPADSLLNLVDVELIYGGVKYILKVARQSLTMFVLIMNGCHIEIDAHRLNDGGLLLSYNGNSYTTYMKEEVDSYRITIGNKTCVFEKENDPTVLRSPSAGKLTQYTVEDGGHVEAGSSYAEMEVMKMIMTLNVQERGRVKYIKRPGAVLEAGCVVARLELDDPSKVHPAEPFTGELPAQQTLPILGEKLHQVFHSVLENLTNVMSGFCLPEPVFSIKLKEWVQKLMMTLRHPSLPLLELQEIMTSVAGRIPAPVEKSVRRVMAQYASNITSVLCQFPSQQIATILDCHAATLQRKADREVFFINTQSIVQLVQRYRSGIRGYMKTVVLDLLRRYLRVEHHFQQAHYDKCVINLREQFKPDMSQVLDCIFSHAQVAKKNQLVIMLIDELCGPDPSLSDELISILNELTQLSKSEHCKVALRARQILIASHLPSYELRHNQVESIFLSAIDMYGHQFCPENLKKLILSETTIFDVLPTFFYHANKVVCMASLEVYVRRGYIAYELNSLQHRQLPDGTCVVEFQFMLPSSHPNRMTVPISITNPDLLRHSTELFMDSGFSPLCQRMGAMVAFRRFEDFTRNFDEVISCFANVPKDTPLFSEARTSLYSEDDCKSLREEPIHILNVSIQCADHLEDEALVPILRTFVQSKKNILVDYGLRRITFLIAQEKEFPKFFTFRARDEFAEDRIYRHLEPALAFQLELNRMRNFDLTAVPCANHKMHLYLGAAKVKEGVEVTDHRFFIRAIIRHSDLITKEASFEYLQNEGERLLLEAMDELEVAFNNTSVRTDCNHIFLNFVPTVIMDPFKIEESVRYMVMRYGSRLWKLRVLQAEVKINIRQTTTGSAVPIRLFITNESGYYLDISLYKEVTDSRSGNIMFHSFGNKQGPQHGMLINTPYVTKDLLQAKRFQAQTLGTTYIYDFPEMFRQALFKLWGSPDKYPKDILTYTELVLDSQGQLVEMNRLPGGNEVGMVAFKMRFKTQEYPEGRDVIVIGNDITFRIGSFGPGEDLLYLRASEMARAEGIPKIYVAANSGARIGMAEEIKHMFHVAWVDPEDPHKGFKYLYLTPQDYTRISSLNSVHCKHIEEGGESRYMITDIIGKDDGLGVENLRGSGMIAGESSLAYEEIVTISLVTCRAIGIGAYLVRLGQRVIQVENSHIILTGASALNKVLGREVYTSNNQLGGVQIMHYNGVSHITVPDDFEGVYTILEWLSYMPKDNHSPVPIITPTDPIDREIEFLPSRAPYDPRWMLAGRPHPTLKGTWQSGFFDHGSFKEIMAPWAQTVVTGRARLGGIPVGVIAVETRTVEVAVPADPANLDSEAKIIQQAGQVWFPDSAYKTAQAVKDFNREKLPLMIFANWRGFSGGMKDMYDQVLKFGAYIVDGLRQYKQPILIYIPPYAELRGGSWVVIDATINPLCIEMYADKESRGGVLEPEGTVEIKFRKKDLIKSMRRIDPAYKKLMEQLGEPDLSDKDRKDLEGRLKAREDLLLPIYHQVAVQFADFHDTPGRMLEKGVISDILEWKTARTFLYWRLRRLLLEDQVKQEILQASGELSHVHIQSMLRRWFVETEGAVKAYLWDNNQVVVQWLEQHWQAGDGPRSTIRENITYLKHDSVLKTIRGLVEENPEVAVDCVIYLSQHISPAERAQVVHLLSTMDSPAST
# PROTOCOL_NOTES: ACC2 assay, spectrophotometric 384 well assay (NADH-linked, coupled lactate dehydrogenase/pyruvate kinase)
# Assay type: biochemical
# CONDITION: ACC2 assay; human ACC2 construct lacking 128 N-terminal amino acids; 25° C., 340 nm, 15 minutes; read-out: IC50
pIC50: −log10 of the molar value.
Threshold check on pIC50: at or above 6 gives 1 (yes), strictly below gives 0 (no).

> print(dat)
                                    compound    class
 1  CCOc1ccc(C2CCN(c3ccc([C@H](C)NC(=O)c4coc(NC(C)=O)n4)cc3)CC2)cc1   0 (no)
 2  CCOc1ccc(C2CCN(c3ccc([C@H](C)NC(=O)c4cncc(NC(C)=O)c4)cc3)CC2)cc1   0 (no)
 3  CCOc1ccc(C2CCN(c3ccc([C@H](C)NC(C)=O)cc3)CC2)cc1  1 (yes)
 4  CC(=O)NC(C)c1ccc(N2CCC(c3ccc(OC(C)C)cc3)CC2)cc1F (centres unmarked)  1 (yes)
 5  CC(=O)N[C@@H](C)c1ccc(N2CCC(c3cccc(OC4CCC4)c3)CC2)cc1  1 (yes)
 6  CCOc1ccc(C2CCN(c3ccc([C@H](C)NC(=O)Cc4cc[nH]c4)cc3)CC2)cc1   0 (no)
 7  CCOc1ccc(C2CCN(c3ccc([C@H](C)NC(C)=O)cc3)CC2)c(OC)c1  1 (yes)
 8  C[C@H](NC(=O)C1CC1)c1ccc(N2CCC(c3ccc(OCC4CC4)cc3)CC2)cc1   0 (no)
 9  CC(=O)NC(C)c1ccc(N2CCC(c3cccc(OC4CCC4)c3)CC2)cc1F (centres unmarked)  1 (yes)
10  CC(=O)N[C@@H](C)c1ccc(N2CCC(c3ccc(OCC4CC4(F)F)cc3)CC2)cc1 (some centres unmarked)  1 (yes)
11  CC(=O)NC(C)c1ccc(N2CCC(c3ccc(OC(C)C)cc3)CC2)c(F)c1 (centres unmarked)  1 (yes)
12  CCCOc1ccc(C2CCN(c3ccc(C(C)NC(C)=O)cc3OC)CC2)cc1 (centres unmarked)   0 (no)
13  CCOc1ccc(C2CCN(c3ccc([C@H](C)NC(C)=O)cc3)CC2)cn1   0 (no)

###

# TARGET_OF_ASSAY: human ACC2 (Homo sapiens, UniProt O00763)
# Construct: made in house; host or cells: insect cells (baculoviral expression system)
# PROTOCOL_NOTES: ACC2 assay, spectrophotometric 384 well assay (NADH-linked, coupled lactate dehydrogenase/pyruvate kinase)
# Format: biochemical
pIC50: −log10 of the molar value.
EXPERIMENTAL_READOUT: pIC50

> print(dat)
                               given.smiles  experimental.readout  reported
1  CCOc1ccc(C2CCN(c3ccc([C@H](C)NC(=O)CF)cc3)CC2)cc1                 pIC50      6.36

###

# TARGET_OF_ASSAY: human ACC2 (Homo sapiens)
# Construct: made in house; host or cells: insect cells (baculoviral expression system)
# PROTOCOL_NOTES: ACC2 assay, spectrophotometric 384 well assay (NADH-linked, coupled lactate dehydrogenase/pyruvate kinase)
# Assay type: biochemical
# CONDITION: ACC2 assay; human ACC2 construct lacking 128 N-terminal amino acids; 25° C., 340 nm, 15 minutes; read-out: IC50
pIC50: −log10 of the molar value.
Threshold check on pIC50: at or above 6 gives 1.0, strictly below gives 0.0.

> print(dat)
                                    compound            target.of.assay  class
 1  CCCOc1ccc(C2CCN(c3ccc(C(C)NC(C)=O)cc3F)CC2)cc1 (centres unmarked)  human ACC2 (Homo sapiens)    1.0
 2  CCOc1ccc(C2CCN(c3ccc([C@H](C)NC(=O)N(CC)CC)cc3)CC2)cc1  human ACC2 (Homo sapiens)    0.0
 3  CCOc1ccc(C2CCN(c3ccc(CCC(C)NC(C)=O)cc3)CC2)cc1 (centres unmarked)  human ACC2 (Homo sapiens)    0.0
 4  CCCOc1ccc(C2CCN(c3ccc([C@H](C)NC(=O)N(C)C)cc3)CC2)cc1  human ACC2 (Homo sapiens)    1.0
 5  CCOc1ccc(C2CCN(c3ccc([C@H](C)NC(=O)C(F)F)cc3)CC2)cc1  human ACC2 (Homo sapiens)    1.0
 6  CCOc1ccc(C2CCN(c3ccc([C@H](C)NC(=O)C4(C)CC4)cc3)CC2)cc1  human ACC2 (Homo sapiens)    1.0
 7  CC(C)Oc1ccc(C2CCN(c3ccc([C@H](C)NC(=O)N(C)C)cc3)CC2)cc1  human ACC2 (Homo sapiens)    1.0
 8  CC(=O)N[C@@H](C)c1ccc(N2CCC(c3cccc(OC(C)C)c3)CC2)cc1  human ACC2 (Homo sapiens)    1.0
 9  C[C@H](NC(=O)N(C)C)c1ccc(N2CCC(c3ccc(OCC4CC4)cc3)CC2)cc1  human ACC2 (Homo sapiens)    1.0
10  CC(=O)NC(C)c1ccc(N2CCC(c3ccc(OCC4CC4)cc3F)CC2)c(F)c1 (centres unmarked)  human ACC2 (Homo sapiens)    1.0
11  CCOc1ccc(C2CCN(c3ccc([C@H](C)NC(=O)CO)cc3)CC2)cc1  human ACC2 (Homo sapiens)    0.0
12  CCOc1ccc(C2CCN(c3ccc([C@H](C)NC(=O)COC)cc3)CC2)cc1  human ACC2 (Homo sapiens)    0.0
13  CCCOc1ccc(C2CCN(c3ccc([C@H](C)NC(=O)C4CC4)cc3)CC2)cc1  human ACC2 (Homo sapiens)    1.0
14  CCCOc1ccc(C2CCN(c3ccc([C@H](C)NC(C)=O)cc3)CC2)c(C)c1  human ACC2 (Homo sapiens)    1.0
15  CCCOc1ccc(C2CCN(c3ccc([C@H](C)NC(C)=O)cc3)CC2)cc1  human ACC2 (Homo sapiens)    1.0
16  CCOc1ccc(C2CCN(c3ccc([C@H](C)NC(=O)OC)cc3)CC2)cc1  human ACC2 (Homo sapiens)    0.0
17  CCOc1ccc(C2CCN(c3ccc(C(C)NC(C)=O)c(F)c3)CC2)cc1 (centres unmarked)  human ACC2 (Homo sapiens)    1.0
18  CCOc1ccc(C2CCN(c3ccc([C@H](C)NC(=O)C4(C#N)CC4)cc3)CC2)cc1  human ACC2 (Homo sapiens)    0.0
19  CCOc1ccc(C2CCN(c3ccc([C@H](C)NC(=O)c4sc(NC(C)=O)nc4C)cc3)CC2)cc1  human ACC2 (Homo sapiens)    1.0
20  CCCOc1ccc(C2CCN(c3ccc(C(C)NC(C)=O)c(F)c3)CC2)c(C)c1 (centres unmarked)  human ACC2 (Homo sapiens)    1.0
21  COc1cc(C(C)NC(C)=O)ccc1N1CCC(c2ccc(OC3CCC3)cc2)CC1 (centres unmarked)  human ACC2 (Homo sapiens)    0.0
22  CCOc1ccc(C2CCN(c3ccc([C@H](C)NC(=O)C(F)(F)F)cc3)CC2)cc1  human ACC2 (Homo sapiens)    1.0
23  CCOc1ccc(C2CCN(c3ccc([C@H](C)NC(=O)N4CCOCC4)cc3)CC2)cc1  human ACC2 (Homo sapiens)    0.0
24  CC(=O)N[C@@H](C)c1ccc(N2CCC(c3ccc(OC4CCC4)cc3)CC2)cc1  human ACC2 (Homo sapiens)    1.0
25  COc1ccc(C2CCN(c3ccc([C@H](C)NC(C)=O)cc3)CC2)cc1  human ACC2 (Homo sapiens)    0.0
